Hi there, I'd appreciate the recorded Log10 CFU/mL T = 3 hr for every entry that follows.
Test system: P. aeruginosa
METHOD: Time-kill assay of GN lysin activity
Format: cell-based, Pseudomonas aeruginosa
MEASUREMENT_CONTEXT: CAA/HuS; lysin 10 μg/mL; T = 0 7.8; buffer control 7.2; limit of detection 3.7; ‡ indicates bactericidal activity

Examples from the recorded data:
MOLECULE: GN105: Native lysin, GenBank WP_016046696.1, SEQ ID NO: 25 (protein, listed as Pseudomonas aeruginosa) MAVVSEKTAGGRNVLAFLDMLAWSEGTSTIRGSDNGYNVVVGGGLFNGYADHPRLKVYLPRYKVYSTAAGRYQLLSRYWDAYRESLALKGGFTPSNQDLVALQQIKERRSLADIQAGRLADAVQKCSNIWASLPGAGYGQREHSLDDLTAHYLAAGGVLS
Log10 CFU/mL T = 3 hr: 6.3 Log10 CFU/mL
--
MOLECULE: GN156: Modified GN4, addition of N-terminal peptide GPRRPRRPGRRAPV, SEQ ID NO: 6 (protein) GPRRPRRPGRRAPVMRTSQRGIDLIKSFEGLRLSAYQDSVGVWTIGYGTTRGVTRYMTITVEQAERMLSNDIQRFEPELDRLAKVPLNQNQWDALMSFVYNLGAANLASSTLLKLLNKGDYQGAADQFPRWVNAGGKRLDGLVKRRAAERALFLEPLS
Log10 CFU/mL T = 3 hr: <3.7‡ Log10 CFU/mL
--
MOLECULE: GN94: Modified GN37, N-terminal peptide KFFKFFKFFK with linker, SEQ ID NO: 14 (protein) KFFKFFKFFKAGAGAGAGAGAGAGAGASMTYTLSKRSLDNLKGVHPDLVAVVHRAIQLTPVDFAVIEGLRSVSRQKELVAAGASKTMNSRHLTGHAVDLAAYVNGIRWDWPLYDAIAVAVKAAAKELGVAIVWGGDWTTFKDGPHFELDRSKYR
Log10 CFU/mL T = 3 hr: <3.7‡ Log10 CFU/mL

Working through the 2 molecules below one at a time, give Log10 CFU/mL T = 3 hr for each.
1. GN150: Native lysin, WP_034684053.1/VanY, SEQ ID NO: 19 (protein, listed as Acinetobacter sp.) MSFKLGKRSLSNLEGVHPDLIKVVKRAIELTECDFTVTEGLRSKERQAQLLKEKKTTTSNSRHLTGHAVDLAAWVNNTVSWDWKYYYQIADAMKKAASELNVSIDWGGDWKKFKDGPHFELTWSKYPIKGAS
2. GN147: Modified GN3, amino acid substitutions (R101D, R117H), SEQ ID NO: 5 (protein) MRTSQRGLSLIKSFEGLRLQAYQDSVGVWTIGYGTTRGVKAGMKISKDQAERMLLNDVQRFEPEVERLIKVPLNQDQWDALMSFTYNLGAANLESSTLRDLLNAGNYAAAAEQFPHWNKAGGQVLAGLTRRRAAERELFLGAA

<3.7‡ Log10 CFU/mL
4.2‡ Log10 CFU/mL

Take each entry in turn and give its Log10 CFU/mL T = 3 hr.
1. GN123: Native lysin, GenBank YP_009217242.1, SEQ ID NO: 27 (protein, Pseudomonas phage PhiPA3) MTLLKKGDKGDAVKQLQQKLKDLGYTLGVDGNFGNGTDTVVRSFQTKMKLSVDGVVGNGTMSTIDSTLAGIKAWKTSVPFPATNKSRAMAMPTLTEIGRLTNVDPKLLATFCSIESAFDYTAKPYKPDGTVYSSAEGWFQFLDATWDDEVRKHGKQYSFPVDPGRSLRKDPRANGLMGAEFLKGNAAILRPVLGHEPSDTDLYLAHFMGAGGAKQFLMADQNKLAAELFPGPAKANPNIFYKSGNIARTLAEVYAVLDAKVAKHRA
2. GN10: Native lysin, GenBank YP_002600773.1, SEQ ID NO: 22 (protein, Pseudomonas phage phi2954) MSKQGGVKVAQAVAALSSPGLKIDGIVGKATRAAVSSMPSSQKAATDKILQSAGIGSLDSLLAEPAAATSDTFREVVLAVAREARKRGLNPAFYVAHIALETGWGRSVPKLPDGRSSYNYAGLKYAAVKTQVKGKTETNTLEYIKSLPKTVRDSFAVFASAGDFSRVYFWYLLDSPSAYRYPGLKNAKTAQEFGDILQKGGYATDPAYAAKVASIASTAVARYGSDVSSVA
3. GN121: Modified GN37, C-terminal peptide RKKTRKRLKKIGKVLKWI, SEQ ID NO: 13 (protein) MTYTLSKRSLDNLKGVHPDLVAVVHRAIQLTPVDFAVIEGLRSVSRQKELVAAGASKTMNSRHLTGHAVDLAAYVNGIRWDWPLYDAIAVAVKAAAKELGVAIVWGGDWTTFKDGPHFELDRSKYRRKKTRKRLKKIGKVLKWI
4. GN146: Modified GN4, amino acid substitutions (K99D, R115H), SEQ ID NO: 4 (protein) MRTSQRGIDLIKSFEGLRLSAYQDSVGVWTIGYGTTRGVTRYMTITVEQAERMLSNDIQRFEPELDRLAKVPLNQNQWDALMSFVYNLGAANLASSTLLDLLNKGDYQGAADQFPHWVNAGGKRLDGLVKRRAAERALFLEPLS

<3.7‡ Log10 CFU/mL
7.4 Log10 CFU/mL
<3.7‡ Log10 CFU/mL
4.0‡ Log10 CFU/mL

Returns the measured Log10 CFU/mL T = 3 hr for the input molecule. Input: GN17: Native lysin, GenBank ACD38663.1, SEQ ID NO: 24 (protein, listed as Pseudomonas aeruginosa) MTLRYGDRSQEVRQLQRRLNTWAGANLYEDGHFGAATEDAVRAFQRSHGLVADGIAGPKTLAALGGADCSHLLQNADLVAAATRLGLPLATIYAVNQVESNGQGFLGNGKPAILFERHIMYRRLAAHDQVTADQLAAQFPALVNPRPGGYAGGTAEHQRLANARQIDDTAALESASWGAFQIMGFHWQRLGYISVQAFAEAMGRSESAQFEAFVRFIDTDPALHKALKARKWADFARLYNGPDYKRNLYDNKLARAYEQHANCAEASA
4.2‡ Log10 CFU/mL
